# System: EKVX NSCLC
# protocol_text: NCI tumour cell line growth inhibition, 48 h
quantity_kind: TGI

// `CN(C)c1ccc(NN=C2SC(=Nc3ccccc3)C(=Nc3ccccc3)S2)cc1` : TGI value = > 100 µM

// `CCCN(CCS(C)(=O)=O)Cc1ccc(-c2ccc3ncnc(Nc4ccc(OCc5cccc(F)c5)c(Cl)c4)c3c2)o1` : TGI value = > 25 µM

// `COC1=CC(=O)C2=C(C1=O)[C@H]1CC[C@]3(C)[C@@H](O)CC[C@H]3[C@@H]1CC2` : TGI value = 30.5 µM

// `COc1cc2c(c(OC)c1)/C(=C/Sc1ccccc1)C(=O)N(C(C)(C)C)C2` : TGI value = > 100 µM

// CCOC(=O)C1C(=S)NC(=O)C1C#N (stereo not given) : TGI value = > 100 µM

// `O=[N+]([O-])c1ccc(C=Cc2ccccc2)cc1.[C-]#[O+].[C-]#[O+].[C-]#[O+].[Cr]` : TGI value = 30 µM

// COC(=O)[C@@H]1CC(C(C[N+](=O)[O-])c2ccc(O[Si](C)(C)C(C)(C)C)cc2)C(=O)N1C(=O)OC(C)(C)C (stereo not given in full) : TGI value = > 100 µM

// `CC(=O)Nc1ccc(SC#N)c2c(NC(C)=O)cccc12` : TGI value = > 100 µM

// `C[N+](C)(C)CCc1ccccc1` : TGI value = > 100 µM

// C=CCC1(OCc2ccccc2)C(=O)C(=O)OC1C1COC(C)(C)O1 (stereo not given) : TGI value = > 100 µM

====

# System: HOP-62 NSCLC
# protocol_text: NCI tumour cell line growth inhibition, 48 h
quantity_kind: TGI

{"columns": ["molecule", "quantity_kind", "reported"],
 "data": [
  ["COc1cc(/C=C/c2nc(NC(=S)Nc3ccccc3)nnc2C)cc(OC)c1OC", "TGI", "> 100 µM"]
]}

// `O=C(OCc1ccc2ccccc2n1)c1cn(C2CC2)c2cc(N3CCN(Cc4ccc5ccccc5n4)CC3)c(F)cc2c1=O` : TGI value = > 95.2 µM

// `O=C1C=CC2(C=C1)O[C@H](Cc1ccccc1)[C@@H](Cc1ccccc1)O2` : TGI value = 3.63 µM

// C/C=C1\CN2CCc3c([nH]c4ccccc34)C2CC1C(=O)OC (stereo unspecified) : TGI value = > 322 µM

// `CCCCn1c(N)c(-c2nc3ccccc3o2)sc1=S` : TGI value = 39.9 µM

// `O=C1CCCN1C(=O)CS(=O)(=O)c1ccccc1` : TGI value = > 100 µM

// O=C1CC(c2c[nH]c3ccccc23)C(=O)N1 (stereo unspecified) : TGI value = > 100 µM

// `C[N+](C)(C)CCc1ccccc1` : TGI value = > 100 µM

// `CCOC(=O)c1c(C)nc2c1c(CN(C)C)c(O)c1[nH]c(C)c(C)nc12` : TGI value = 51 µM

// `COc1ccc(-c2nc(Nc3cc(C)[nH]n3)c3ccccc3n2)cc1` : TGI value = > 26.2 µM

// `O=C1c2ccccc2-c2cc([N+](=O)[O-])c([N+](=O)[O-])cc21` : TGI value = 3.13 µM

====

# Tested on: T-47D breast
# protocol_text: NCI tumour cell line growth inhibition, 48 h
Listing: TGI of selected compounds

{"columns": ["compound", "tgt", "TGI"],
 "data": [
  ["CCOC(=O)C1=NOC2(C=C(Br)C(=O)C(Br)=C2)C1", "T-47D breast", "3.99 µM"]
]}

// `O=C(/C=C/c1cc2ccccc2[nH]c1=O)/C=C/c1cc2ccccc2[nH]c1=O` : TGI value = > 100 µM

// `CC1=NN(C(=O)c2ccncc2)C(=O)C1` : TGI value = > 100 µM

// `Cn1c(=O)c2[nH]c(CCNC(=O)c3ccccc3)nc2n(C)c1=O` : TGI value = > 100 µM

// `CN[C@@H](C)C(=O)N[C@H](C(=O)N1CCC[C@H]1C(=O)Nc1sc(-c2ncco2)nc1-c1ccccc1)C1CCCCC1` : TGI value = 82.4 µM

// O=c1[nH]c(=O)n(C2CC(O)C(COP(=O)(OCc3ccc([N+](=O)[O-])o3)N(CCCCCl)CC(O)CO)O2)cc1F (stereo not given) : TGI value = > 100 µM

// `CC1=NC(=Cc2cccc(Cl)c2)C(=O)N1n1c(-c2ccccc2)nc2ccccc2c1=O` : TGI value = 69 µM

// `C[C@]12CC[C@@H]3c4cc(OCC(F)(F)F)c(O)cc4CC[C@H]3[C@@H]1CC[C@@H]2O` : TGI value = 49.5 µM

// CCN1CCC(C)OP1(=O)Cc1ccccc1 (stereo not given) : TGI value = > 100 µM

// `CC(=O)/C=C/c1cn(C(=O)OC(C)(C)C)c2ccc(Br)cc12` : TGI value = 54.4 µM

// `O=c1ssc(=Nc2ccccc2)n1-c1ccccc1` : TGI value = 39.1 µM

// `CCCCCCCCCCCCCCCCCC[n+]1ccc2c(C)c3c(c(C)c2c1)c1cc(O)ccc1n3CC` : TGI value = 27.3 µM

// `Nc1n[n+](CC(=O)c2ccccc2)c2sc(-c3ccccc3)nn12` : TGI value = > 100 µM

// `CN(C)CCCN1c2ccccc2Sc2ccc3ccccc3c21` : TGI value = 5.65 µM

// `COc1cccc(OC(=O)c2ccc(C(F)(F)F)nc2Nc2cc(Cl)ccc2C)c1` : TGI value = > 100 µM

// COc1cc2c(cc1OC)C1C=NC(C2)c2cc(OC)c(OC)cc21 (stereo not given) : TGI value = > 100 µM

// CC1=NNC(=O)C1C1CC(c2c[nH]c3ccccc23)=NNC1=O (stereo not given) : TGI value = > 100 µM

// `O=C1C=CC2(C=C1)O[C@H](Cc1ccccc1)[C@@H](Cc1ccccc1)O2` : TGI value = > 100 µM

// `C[C@@H]1CN(Cc2ccc(F)cc2)[C@@H](C)CN1C(=O)c1cc2c(C(=O)C(=O)N(C)C)cn(C)c2cc1Cl` : TGI value = 65.6 µM

// `C/C(=N\Nc1ccc([N+](=O)[O-])cc1[N+](=O)[O-])c1sc(-n2nc(-c3ccccc3)cc2-c2ccccc2)nc1C` : TGI value = > 100 µM
